B1: FBXO34 (parent)
chain: PRYREDPCKQCKKKYVKGDVSLCR

# Variants of: B1
# assay method text: protein stability index of a GFP-peptide fusion (GPS, HEK-293T) (PSI 1-6); higher = more stable;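 further: lentivirally expressed fusions sorted by FACS into six bins by GFP to DsRed ratio, PSI derived from sequencing read proportions per bin multiplied by bin number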
# assay context: c terminus: a fixed tail appended
Outcome: satisfied for protein stability index of at least 3; not satisfied for anything lower.

variant_description=P1Q assigned_class="not satisfied"
variant_description=C11F assigned_class="not satisfied"
variant_description=S21L assigned_class="not satisfied"
variant_description=E5W assigned_class="not satisfied"
variant_description=Y3E assigned_class=satisfied

Q: Say whether `K17S` shows protein stability index of 3 or more.
Result: not satisfied

Q: Say whether `K17M` shows protein stability index of 3 or more.
Result: not satisfied
